# assay-comment: P-glycoprotein substrates identified in KB-8-5-11 adenocarcinoma cell line, qHTS therapeutic library screen (AID 1346987); note: nearly all actives have a fitted effect of over 65% in size
# test-conditions: KB-8-5-11 (P-gp overexpressing) viability, CellTiter-Glo, 72 h; series mostly up to 44.5 µM
Records with an inconclusive call do not appear. The source made the active and inactive calls. Calls come from the whole dose curve; as a rule, active = well fitted inhibition curve with a large enough effect; inconclusive = small, poorly fitted or top-dose-only effect; inactive = flat fitted curve, though single readings scatter.
Outcome field: choose from True for active, False for inactive

Recorded results for 3 compounds are shown here.
| compound | assigned-label |
| --- | --- |
| CCCCCCNC(=O)n1cc(F)c(=O)[nH]c1=O | True |
| CNC1CCCN(c2c(F)cc3c(=O)c(C(=O)O)cn(C4CC4)c3c2OC)C1 (stereo unspecified) | False |
| C[C@@H]1CN(c2c(F)c(N)c3c(=O)c(C(=O)O)cn(C4CC4)c3c2F)C[C@H](C)N1 | False |

Query: Call for entry CC(C)NCC(O)c1ccc(NS(C)(=O)=O)cc1 (stereo unspecified) :
Response: False

Query: Recorded call for `CCn1cc(C(=O)O)c(=O)c2cc(F)c(N3CCN(C)CC3)cc21` ?
Response: False

Query: Answer briefly: the call reported for `CN1CCN(c2c(F)cc3c(=O)c(C(=O)O)cn4c3c2OCN4C)CC1` in this assay.
Response: False

---

# Test system: HeLa
# assay-comment: Primary qHTS to identify gynecologic anti-cancer compounds using libraries of approved drugs and bioactive compounds (AID 1345084); note: nearly all actives have a fitted effect of over 55% in size
# test-conditions: Gynecologic cancer cell panel viability, ATPlite luminescence, 48 h; series mostly up to 57.5 µM
Results filed as inconclusive are left out. Active and inactive are the calls of the source. Calls come from the whole dose curve; as a rule, active = well fitted cell-killing curve with a large enough effect; inconclusive = small, poorly fitted or top-dose-only effect, or effect the other way; inactive = flat fitted curve, though single readings scatter.
Respond with a class label; see yes (1) (active), no (0) (inactive)

| compound | assigned-label |
| --- | --- |
| CC1(C)[C@H](C(=O)O)N2C(=O)C[C@H]2S1(=O)=O | no (0) |
| O=C(O)c1cccnc1 | no (0) |
| COc1cc([C@@H]2c3cc4c(cc3[C@H](O)[C@H]3COC(=O)[C@H]23)OCO4)cc(OC)c1OC | yes (1) |
| Cc1cccc(N(C)C(=S)Oc2ccc3ccccc3c2)c1 | no (0) |
| CN(C)c1ccc(C(=C2C=CC(=[N+](C)C)C=C2)c2ccc(N(C)C)cc2)cc1 | yes (1) |
| CC1=NN(c2ccccc2)C(=O)C1 | no (0) |
| CCCOc1ccc(C(=O)OCCN(CC)CC)cc1N | no (0) |
| CNC1CCCN(c2c(F)cc3c(=O)c(C(=O)O)cn(C4CC4)c3c2OC)C1 (stereo unspecified) | no (0) |
| CCOCC(O)COc1ccc(NC(=O)CC[S+](C)C)cc1 (stereo unspecified) | no (0) |
| NC(N)=NC(N)=NCCc1ccccc1 | no (0) |

Attention now turns to another entry.
Query: Which result was noted for this compound in the test: `C[C@@H]1CN(c2c(F)c(N)c3c(=O)c(C(=O)O)cn(C4CC4)c3c2F)C[C@H](C)N1`
Response: no (0)

---

# Tested on: CP291
# assay-comment: qHTS profiling for inhibitors of Plasmodium falciparum proliferation (AID 504749); note: nearly all actives have a fitted effect of over 60% in size
# test-conditions: P. falciparum in erythrocytes, SYBR Green DNA, 72 h; series mostly up to 28.7 µM
Inconclusive results are not listed. Activity calls are given as the source filed them. Calls follow the shape of the dose curve; as a rule, active = well fitted inhibition curve with a large enough effect; inconclusive = small, poorly fitted or top-dose-only effect; inactive = flat fitted curve, though single readings scatter.
Lab note: assign the record to one of active, inactive

Study these solved cases before continuing.
| molecule | assigned-label |
| --- | --- |
| CCC(C)(C)c1ccc(CC(C)CN2C[C@@H](C)O[C@@H](C)C2)cc1 (some centres undefined) | inactive |
| Cc1nnc(NS(=O)(=O)c2ccc(N)cc2)s1 | inactive |
| CC(=O)Oc1ccccc1C(=O)Nc1ncc([N+](=O)[O-])s1 | inactive |
| COc1cc(NS(=O)(=O)c2ccc(N)cc2)nc(OC)n1 | inactive |
| CNC1CCCN(c2c(F)cc3c(=O)c(C(=O)O)cn(C4CC4)c3c2OC)C1 (centres undefined) | inactive |
| COC(=O)Nc1nc2ccc(Sc3ccccc3)cc2[nH]1 | inactive |
| COc1ccc2cc3[n+](cc2c1OC)CCc1cc2c(cc1-3)OCO2 | active |
| CCc1c2c(nc3ccc(OC(=O)N4CCC(N5CCCCC5)CC4)cc13)-c1cc3c(c(=O)n1C2)COC(=O)[C@]3(O)CC | inactive |

Query: What did the test return for `N[C@@H](C(=O)N[C@@H]1C(=O)N2C(C(=O)O)=C(Cl)CS[C@H]12)c1ccccc1` ?
Response: inactive

Query: What call does the record list for `CCc1cc(C(N)=S)ccn1` ?
Response: inactive

Query: What did the test return for `CC[C@H](C)C(=O)O[C@H]1C[C@@H](C)C=C2C=C[C@H](C)[C@H](CC[C@@H]3C[C@@H](O)CC(=O)O3)[C@H]21` ?
Response: inactive

Query: Record lookup: outcome of this test for `COc1ccc(C(=O)CC(=O)c2ccc(C(C)(C)C)cc2)cc1` ?
Response: inactive

Query: Would you mind telling me which call this test gave `NC(=O)c1cccnc1` ?
Response: inactive

Query: For `COc1cnc(NS(=O)(=O)c2ccc(N)cc2)nc1` , what call appears in the results of this test?
Response: inactive

Query: Tell me the assay call for `CNNCc1ccc(C(=O)NC(C)C)cc1` please.
Response: inactive

Query: What did the test return for `O=NN(CCCl)C(=O)NC1CCCCC1` ?
Response: inactive

Query: Please state the recorded outcome for this molecule: `CN(Cc1cc(Br)cc(Br)c1N)C1CCCCC1`
Response: inactive

Query: Name the outcome recorded for `O=P(O)(O)C(O)(Cc1cccnc1)P(=O)(O)O` in the assay.
Response: inactive

Query: Test call for this molecule, please: CCOCC(O)COc1ccc(NC(=O)CC[S+](C)C)cc1 (centres undefined)
Response: inactive
